The measurements presented in this section are drawn from patent US20250122160A1.

Assignment: determine reported pIC50 for the given compounds.
- Tgt: His tagged PTPN2 (TC45) protein (Homo sapiens)
- Construct: made in house
- Sequence (P17706 with tags, fused parts or gaps isoform P17706-2): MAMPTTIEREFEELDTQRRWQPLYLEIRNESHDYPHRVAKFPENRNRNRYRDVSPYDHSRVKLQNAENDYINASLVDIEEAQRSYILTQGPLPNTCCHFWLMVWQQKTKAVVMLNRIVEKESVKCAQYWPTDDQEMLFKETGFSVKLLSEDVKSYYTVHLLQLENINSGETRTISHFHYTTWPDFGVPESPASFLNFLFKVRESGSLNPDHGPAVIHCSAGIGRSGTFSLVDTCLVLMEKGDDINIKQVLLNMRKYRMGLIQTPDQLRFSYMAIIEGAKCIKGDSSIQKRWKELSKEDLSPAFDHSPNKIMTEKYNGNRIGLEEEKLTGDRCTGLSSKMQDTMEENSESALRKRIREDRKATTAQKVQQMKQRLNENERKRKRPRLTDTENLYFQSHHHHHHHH
- Assay Comment: Mobility shift assay (MSA) to determine potency of PTPN2 inhibitors
- Format: biochemical
- Experimental Context: 0.5 nM enzyme, 2 μM substrate
pIC50: −log10 of the molar value.

Enquiry: Give the reported pIC50 for `Cn1cc(CCN2CCc3cc(O)c(N4CC(=O)NS4(=O)=O)c(F)c3C2)cn1` (system: His tagged PTPN2 (TC45) protein (Homo sapiens)).
Return: < 7.00

Enquiry: Look up pIC50 with His tagged PTPN2 (TC45) protein (Homo sapiens) for this compound: `O=C1CN(c2c(O)cc3c(c2F)C[C@H](NCCCOCC(F)F)CO3)S(=O)(=O)N1`
Return: 7.00 to 8.00

Enquiry: Test system His tagged PTPN2 (TC45) protein (Homo sapiens); read-out pIC50; what value for `CC(C)(C)OC(=O)N1CCC(CN[C@@H]2COc3cc(O)c(N4CC(=O)NS4(=O)=O)c(F)c3C2)CC1` ?
Return: 7.00 to 8.00

Enquiry: Lab note: need pIC50 for `CC(C)(C)OC(=O)N[C@@H]1CCc2cc(O)c(N3CC(=O)NS3(=O)=O)c(F)c2C1` on His tagged PTPN2 (TC45) protein (Homo sapiens), anyone have it?
Return: 7.00 to 8.00

Enquiry: Kindly state the measured pIC50 obtained for O=C1CN(c2c(O)cc3c(c2F)CC(NCCC2COC2)CC3)S(=O)(=O)N1 (centres unmarked) with His tagged PTPN2 (TC45) protein (Homo sapiens).
Return: < 7.00

Enquiry: GET /values?readout=pIC50&system=His tagged PTPN2 (TC45) protein (Homo sapiens)&item= CC(C)C1CN(C2CCc3cc(O)c(N4CC(=O)NS4(=O)=O)c(F)c3C2)CCO1 (centres unmarked)
Return: 8.00 to 9.00

Enquiry: Form: Entry = CC(=O)NC1CCc2cc(O)c(N3CC(=O)NS3(=O)=O)c(F)c2C1 (centres unmarked) | System = His tagged PTPN2 (TC45) protein (Homo sapiens) | pIC50 = ____
Return: 7.00 to 8.00

Enquiry: Enter reported pIC50 observed with His tagged PTPN2 (TC45) protein (Homo sapiens) for `CN(C)CCNC(=O)N1CCc2cc(O)c(N3CC(=O)NS3(=O)=O)c(F)c2C1`
Return: < 7.00

Enquiry: Which measured pIC50 belongs to `O=C1CN(c2c(O)cc3c(c2F)C[C@H](NCCC2CCOCC2)CO3)S(=O)(=O)N1` , tested on His tagged PTPN2 (TC45) protein (Homo sapiens)?
Return: 7.00 to 8.00

Enquiry: Lab note: need pIC50 for [2H]C1([2H])Cc2cc(O)c(N3CC(=O)NS3(=O)=O)c(F)c2C([2H])([2H])[C@]1([2H])NCCC(C)C (single isomer, unassigned) on His tagged PTPN2 (TC45) protein (Homo sapiens), anyone have it?
Return: > 9.00

Enquiry: I'm curious: which pIC50 was measured for CC(C)(C)O[C@H]1C[C@@H](CCNC2CCc3cc(O)c(N4CC(=O)NS4(=O)=O)c(F)c3C2)C1 (some centres unmarked) tested on His tagged PTPN2 (TC45) protein (Homo sapiens)?
Return: 7.00 to 8.00

Enquiry: Lab note: need pIC50 with His tagged PTPN2 (TC45) protein (Homo sapiens) for entry `CC(C)CCN[C@H]1Cc2c(cc(O)c(N3CC(=O)NS3(=O)=O)c2F)C[C@@H]1O` , please look it up.
Return: > 9.00

Enquiry: Entry `Cc1n[nH]c(C)c1CN1CCc2cc(O)c(N3CC(=O)NS3(=O)=O)c(F)c2C1` , system His tagged PTPN2 (TC45) protein (Homo sapiens): what pIC50 was measured?
Return: < 7.00

Enquiry: API: value(readout= pIC50, system= His tagged PTPN2 (TC45) protein (Homo sapiens), query= `CC(C)CCNC(=O)N1CCc2cc(O)c(N3CC(=O)NS3(=O)=O)c(F)c2C1` )
Return: 8.00 to 9.00

Enquiry: Under His tagged PTPN2 (TC45) protein (Homo sapiens): pIC50 value of O=C1CN(c2c(O)cc3c(c2F)CC(CNCC2CC2)CC3)S(=O)(=O)N1 (centres unmarked) ?
Return: 7.00 to 8.00

Enquiry: Param readout = pIC50; param system = His tagged PTPN2 (TC45) protein (Homo sapiens); param query = `O=C1CN(c2c(O)cc3c(c2F)CN(CCCC2CCOCC2)CC3)S(=O)(=O)N1` ; response: value
Return: 7.00 to 8.00

Enquiry: API: value(readout=pIC50, system=His tagged PTPN2 (TC45) protein (Homo sapiens)) for record N#CC1CC1CN[C@@H]1CCc2cc(O)c(N3CC(=O)NS3(=O)=O)c(F)c2C1 (some centres unmarked)
Return: 8.00 to 9.00

Enquiry: Query the reported pIC50 for His tagged PTPN2 (TC45) protein (Homo sapiens); item: `Cc1nn(C)cc1CCN1CCc2cc(O)c(N3CC(=O)NS3(=O)=O)c(F)c2C1`
Return: 8.00 to 9.00

Enquiry: Request - read-out pIC50 | tested on His tagged PTPN2 (TC45) protein (Homo sapiens) | compound CC(CN[C@@H]1CCc2cc(O)c(N3CC(=O)NS3(=O)=O)c(F)c2C1)C(F)(F)F (some centres unmarked)
Return: 8.00 to 9.00

Enquiry: pIC50 of `CC(C)(O)CCN1CCc2cc(O)c(N3CC(=O)NS3(=O)=O)c(F)c2C1` on His tagged PTPN2 (TC45) protein (Homo sapiens)?
Return: 7.00 to 8.00

Enquiry: Look up pIC50 with His tagged PTPN2 (TC45) protein (Homo sapiens) for this compound: `[2H]C1([2H])C(=O)NS(=O)(=O)N1c1c(O)cc2c(c1F)C[C@H](NCCC(C)C)CC2`
Return: > 9.00

Enquiry: Please provide the recorded pIC50 for O=C1CN(c2c(O)cc3c(c2F)C[C@H](NCC2CCCOC2)CC3)S(=O)(=O)N1 (some centres unmarked) , tested on His tagged PTPN2 (TC45) protein (Homo sapiens).
Return: 8.00 to 9.00

Enquiry: Provide value of pIC50 for this record tested with His tagged PTPN2 (TC45) protein (Homo sapiens): `O=C1CN(c2c(O)cc3c(c2F)CN(C(=O)NCC2CC2)CC3)S(=O)(=O)N1`
Return: 8.00 to 9.00

Enquiry: Tell me reported pIC50 for O=C1CN(c2c(O)cc3c(c2F)CC(CNCC2CCC2)CC3)S(=O)(=O)N1 (centres unmarked) , tested with His tagged PTPN2 (TC45) protein (Homo sapiens).
Return: 7.00 to 8.00

Enquiry: What value of pIC50 on His tagged PTPN2 (TC45) protein (Homo sapiens) does `O=C1CN(c2c(O)cc3c(c2F)CN(CCN2CCCC2)CC3)S(=O)(=O)N1` have?
Return: < 7.00

Enquiry: // lookup pIC50 | system=His tagged PTPN2 (TC45) protein (Homo sapiens) | key= `CN1CCN(CCCN2CCc3cc(O)c(N4CC(=O)NS4(=O)=O)c(F)c3C2)CC1`
Return: < 7.00

Enquiry: Record lookup: for His tagged PTPN2 (TC45) protein (Homo sapiens), what pIC50 belongs to `O=C1CN(c2c(O)cc3c(c2F)CN(CCCO)CC3)S(=O)(=O)N1` ?
Return: 7.00 to 8.00

Enquiry: Item `N[C@@H]1CCc2cc(O)c(N3CC(=O)NS3(=O)=O)c(F)c2C1` with His tagged PTPN2 (TC45) protein (Homo sapiens) - pIC50?
Return: 7.00 to 8.00

Enquiry: Report pIC50 for `COCCCN1CCc2cc(O)c(N3CC(=O)NS3(=O)=O)c(F)c2C1` tested on His tagged PTPN2 (TC45) protein (Homo sapiens).
Return: < 7.00

Enquiry: Can you look up pIC50 on His tagged PTPN2 (TC45) protein (Homo sapiens) for `O=C1CN(c2c(O)cc3c(c2F)CN(CCCC2CCCCC2)CC3)S(=O)(=O)N1` ?
Return: 8.00 to 9.00

Enquiry: Record lookup: for His tagged PTPN2 (TC45) protein (Homo sapiens), what pIC50 belongs to `O=C1CN(c2c(O)cc3c(c2F)C[C@H](NCc2cnco2)CC3)S(=O)(=O)N1` ?
Return: 7.00 to 8.00

Enquiry: Field: pIC50 (His tagged PTPN2 (TC45) protein (Homo sapiens)). Entry: `CC(C)CCN1CCc2cc(O)c(N3CC(=O)NS3(=O)=O)c(F)c2C1`
Return: 7.00 to 8.00
